methodSummary: basal RPMI8226 viability, no added stimulus, profiling panel, cell-based, calcein-AM fluorescence, 48 h, PK04 Diversity Set (AID 1166);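 also: cells grown under basal conditions without added stimulus; test concentration not given here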
experimentalContext: RPMI8226 myeloma viability, higher = more signal
Give z-score for every item shown.
Reply briefly: the number, and no unit.

Notebook: CCOC(=O)C1=CCC(c2ccco2)N(S(=O)(=O)c2ccc(C)cc2)C1 (configuration not stated) , z-score read as -1.64

Notebook: O=C(CS)NCCCCCCNC(=O)[C@@H]1C[C@@H]2C(=O)NCC(=O)N2[C@@H]1c1ccc(O)cc1 , z-score read as 1.06

Notebook: COC(=O)c1c2oc(c1C(=O)OC)C(=O)N1CCC[C@H]1Cn1nncc1CN(Cc1ccccc1)C(=O)N[C@H](CO)CC2 , z-score read as 0.394

Notebook: O=C1O[C@H](c2ccccc2)[C@H](c2ccccc2)N2[C@H]1[C@@H](C(=O)Nc1nc3ccccc3s1)[C@]1(C(=O)Nc3ccc(C#CC4=CCCCC4)cc31)[C@H]2c1ccc(O)cc1 , z-score read as -2.01

Notebook: COc1ccc(C#Cc2ccc3c(c2)[C@]2(C(=O)N3)[C@H](c3ccc(OCCO)cc3)N3[C@H](c4ccccc4)[C@H](c4ccccc4)OC(=O)[C@H]3[C@@H]2C(=O)N2CCc3cc(OC)c(OC)cc3C2)cc1 , z-score read as 0.343

Notebook: C=CCN1C(=O)[C@@]2(O[C@@H](CCO)[C@H]([Si](C)(C)c3ccc(OC)cc3)[C@H]2C)c2cc(N3CCOC3=O)ccc21 , z-score read as -4.38

Notebook: COCCOC(=O)N1C(=O)[C@@]2(c3cc(C#CCCO)ccc31)[C@H](c1ccccc1OCCO)N1[C@H](c3ccccc3)[C@H](c3ccccc3)OC(=O)[C@H]1[C@@H]2C(=O)N1CCCCCCC1 , z-score read as -0.004

Notebook: CN(C)C(=O)[C@@]1(Cc2ccccc2N=[N+]=[N-])N=C(c2ccc(OCCCO)cc2)O[C@H]1c1ccccc1 , z-score read as -3.67

Notebook: COc1ccc([Si](C)(C)[C@H]2[C@H](CC(=O)N3Cc4ccccc4C[C@H]3CO)O[C@@]3(C(=O)N(Cc4ccc(N5C(=O)c6cccc7cccc5c67)cc4)c4ccccc43)[C@@H]2C)cc1 , z-score read as -0.874

Notebook: COCC1=C2[C@@H](CCc3ccccc3)OB(O)C[C@@H]2[C@@H]2C(=O)N(C)C(=O)[C@@H]2C1 , z-score read as -0.126

Notebook: NCCCCCNC(=O)[C@@H]1C[C@@H]2C(=O)N3CCC[C@H]3C(=O)N2[C@@H]1c1ccc(O)cc1 , z-score read as 0.209

Notebook: CCCC=C(CCC)[C@@H](NS(=O)(=O)c1cccc2cccnc12)c1ccc(-c2ccccc2)cc1 , z-score read as -4.54

Notebook: CN(C)CCCNC(=O)[C@@H]1c2ccccc2C(=O)N(C2CCCCC2)[C@H]1c1ccc(CO)cc1 , z-score read as -0.514

Notebook: [N-]=[N+]=NCc1ccccc1[C@@H]1OC(c2ccc(OCCCO)cc2)=N[C@]1(Cc1ccccc1)C(=O)NCCN1CCOCC1 , z-score read as 0.185

Notebook: COCCOC(=O)N1C(=O)[C@@]2(c3cc(C#CCNC(N)=O)ccc31)[C@H](c1ccc(O)cc1)N1[C@H](c3ccccc3)[C@H](c3ccccc3)OC(=O)[C@H]1[C@@H]2C(N)=O , z-score read as -0.933

Notebook: C=CCNC(=O)[C@@H]1[C@H]2C(=O)O[C@H](c3ccccc3)[C@H](c3ccccc3)N2[C@H](c2ccc(O)cc2)[C@@]12C(=O)N(C(=O)OCCOC)c1ccc(C#CCCO)cc12 , z-score read as 0.262

Notebook: CN1C(=O)C2C(C1=O)C1C=C(CCCO)C2C(C2CC2)N1Cc1cc2c(cc1Br)OCO2 (configuration not stated) , z-score read as -0.909

Notebook: CN(C)CCCCNC(=O)[C@H]1C[C@H]2C(=O)N[C@@H](CCCC[N+](C)(C)C)C(=O)N2[C@H]1c1ccc(O)cc1 , z-score read as 0.733

Notebook: COC(=O)[C@@]1(Cc2ccc(OC)cc2)[C@H]2c3cc(C(=O)N4CCCC4)n(Cc4ccc(S(C)(=O)=O)cc4)c3C[C@H]2CN1C(=O)c1ccccc1 , z-score read as -0.403

Notebook: CO[C@H]1O[C@H](CO)[C@@H](OC(=O)CCc2ccccc2)[C@H](OC(=O)c2cc3ccccc3[nH]2)[C@H]1OC(=O)c1cc2ccccc2[nH]1 , z-score read as -2.54

Notebook: Cc1ccc(F)cc1S(=O)(=O)N[C@@H]1CCN(Cc2cccc3[nH]ccc23)C1 , z-score read as -0.864

Notebook: Cc1ccc(S[C@]2(C(=O)NCC(C)C)CC(=O)N(C3Cc4ccccc4C3)[C@@H]2c2ccc(CO)cc2I)cc1 , z-score read as -2.6

Notebook: COCCOC(=O)N1C(=O)[C@@]2(c3cc(C#CCNC(N)=O)ccc31)[C@H](c1ccc(O)cc1)N1[C@H](c3ccccc3)[C@H](c3ccccc3)OC(=O)[C@H]1[C@@H]2C(=O)N1CCN(c2ncccn2)CC1 , z-score read as -1.05

Notebook: C=C[C@@H](C)[C@@H](OC(=O)Nc1ccc(SC)cc1)c1ccc(OCCO)cc1 , z-score read as -0.425

Notebook: CC1(C)C(=O)C(c2ccccc2)=C2CN3C(=O)N(CCc4ccccc4)C(=O)C3(Cc3ccc(C(F)(F)F)cc3)C=C21 (configuration not stated) , z-score read as -1.75

Notebook: C=CCC(OC(C)=O)[C@@H]1[C@@H](N(Cc2cccc3ccccc23)C(=O)c2cccc3ccccc23)c2cc(OCCCO)ccc2N1C(=O)c1ccc2ccccc2c1 (some centres not stated) , z-score read as 0.0694

Notebook: COCCOC(=O)N1C(=O)[C@@]2(c3cc(C#CCNC(N)=O)ccc31)[C@H](c1ccc(OCCO)cc1)N1[C@H](c3ccccc3)[C@H](c3ccccc3)OC(=O)[C@H]1[C@@H]2C(N)=O , z-score read as -0.668
